assay: Cytotoxicity in human HuH7 cells assessed as inhibition of cell growth at 10 uM incubated for 72 hrs by CCK8 assay relative to control; assay type: cell-based, Huh-7; details: read-out: GI
Observation Type: inhibition at 72 h, 10 µM

Smiles Representation | Readout Value
COC(=O)N[C@H](C(=O)N1CCC[C@H]1c1ncc(-c2ccc3c(ccc4cc(-c5cnc([C@@H]6CCCN6C(=O)[C@@H](NC(=O)OC)C(C)C)[nH]5)sc43)c2)[nH]1)C(C)C | 14%

----------
test: Drug level in plasma of Wistar rat at 10 mg/kg, po measured at 4 hrs by LC-MS/MS analysis; format: ADME, organism-based

Smiles Representation | Unit Tag | concentration at 4 h
COC(=O)N[C@H](C(=O)N1CCC[C@H]1c1ncc(-c2ccc3c(ccc4cc(-c5cnc([C@@H]6CCCN6C(=O)[C@@H](NC(=O)OC)C(C)C)[nH]5)sc43)c2)[nH]1)C(C)C | nM | 600
COC(=O)N[C@H](C(=O)N1CCC[C@H]1c1ncc(-c2ccc3c(c2)OCC(C)(C)COc2cc(-c4cnc([C@@H]5CCCN5C(=O)[C@@H](NC(=O)OC)C(C)C)[nH]4)ccc2-3)[nH]1)C(C)C | nM | 620
COC(=O)N[C@H](C(=O)N1CCC[C@H]1c1nc(Cl)c(-c2ccc3c(c2)OCC(C)(C)COc2cc(-c4[nH]c([C@@H]5CCCN5C(=O)[C@@H](NC(=O)OC)C(C)C)nc4Cl)ccc2-3)[nH]1)C(C)C | nM | 640
COC(=O)N[C@H](C(=O)N1CCC[C@H]1c1ncc(-c2ccc3c(c2)OCc2cc(-c4cnc([C@@H]5CCCN5C(=O)[C@@H](NC(=O)OC)C(C)C)[nH]4)sc2-3)[nH]1)C(C)C | nM | 1390
COC(=O)N[C@H](C(=O)N1CCC[C@H]1c1ncc(-c2ccc3c(c2)CCc2cc(-c4cnc([C@@H]5CCCN5C(=O)[C@@H](NC(=O)OC)C(C)C)[nH]4)sc2-3)[nH]1)C(C)C | nM | 1250
